The values you see were collected from ChEMBL document CHEMBL4689842.

# System: HEK-293T
# EXPERIMENT_SUMMARY: Multiplex assay against HEK293T;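 for Population Tubulin-Different-Phenotype (%): share of the cells with healthy nuclei that show this phenotype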
# Type: toxicity, cell-based
# MEASUREMENT_CONDITIONS: human, 12 h, 1 µM, compound concentration 1 uM, replicate 1
Decide using Population Tubulin-Different-Phenotype (%) alone. Strictly below 80%: T. Equal to or above 80%: F.

- COMPOUND: "Cn1cc(-c2[nH]c3cc(NC(=O)[C@H](N)C4CCCCC4)cc4c3c2C=NNC4=O)cn1"
  TGT: "HEK-293T"
  LABEL: "T"

IN: Could you please tell me whether Population Tubulin-Different-Phenotype (%) recorded for "Cc1cc(C)cc(-c2cnc3cc(Cl)c(-c4cccc(O)c4)cc3c2OCCCN)c1" is less than 80%?
OUT: F

IN: Could you please tell me whether Population Tubulin-Different-Phenotype (%) recorded for Cc1nc(-c2cn3c(n2)-c2ccc(-c4cnn(C(C)(C)C(N)=O)c4)cc2OCC3)n(C(C)C)n1 [TASELISIB] is less than 80%?
OUT: T

IN: Could you please tell me whether Population Tubulin-Different-Phenotype (%) recorded for CC[C@H](C)C(=O)O[C@H]1C[C@@H](C)C=C2C=C[C@H](C)[C@H](CC[C@@H]3C[C@@H](O)CC(=O)O3)[C@H]21 [LOVASTATIN] is less than 80%?
OUT: T

IN: Could you please tell me whether Population Tubulin-Different-Phenotype (%) recorded for "Cc1[nH]c(/C=C2\C(=O)Nc3ccc(S(=O)(=O)N(C)c4cccc(Cl)c4)cc32)c(C)c1C(=O)N1CCN(C)CC1" is less than 80%?
OUT: F

----------
# System: HEK-293T
# EXPERIMENT_SUMMARY: Multiplex assay against HEK293T
# Format: toxicity, cell-based
# MEASUREMENT_CONDITIONS: human, 24 h, 1 µM, compound concentration 1 uM, replicate 2
MEASUREMENT_LABEL: Population Membrane Permeable-Phenotype (%)
Enter your answer as a number in %; do not include the unit.

Some compounds with known Population Membrane Permeable-Phenotype (%) results, for comparison:
- COMPOUND: "COc1cccc([C@@H](C)NCCCc2ccccc2Cl)c1.Cl [TECALCET HYDROCHLORIDE]"
  EXPERIMENTAL_RESULT: 10
- COMPOUND: "Nc1c(C(=O)NCc2ccc(C(=O)NCCCC3CCCCC3)cc2)cnn1-c1ccccc1"
  EXPERIMENTAL_RESULT: 7
- COMPOUND: "CC(C)(O)CNc1ncc(-c2ccnc(Nc3ccnc(Cl)c3)n2)c(CC2CC2)n1"
  EXPERIMENTAL_RESULT: 6
- COMPOUND: "C=CC(=O)Nc1ccc2ncnc(Nc3ccc(OCc4cccc(F)c4)c(Cl)c3)c2c1.Cc1ccc(S(=O)(=O)O)cc1"
  EXPERIMENTAL_RESULT: 10
- COMPOUND: "c1cn2cc(-c3ccc4cn[nH]c4c3)nc(Nc3ccc(N4CCOCC4)cc3)c2n1"
  EXPERIMENTAL_RESULT: 5

IN: Item: C=CC(=O)Nc1cc2c(Nc3ccc(F)c(Cl)c3)ncnc2cc1OCCCN1CCOCC1.Cl.Cl [CANERTINIB DIHYDROCHLORIDE] Test system: HEK-293T Read-out: Population Membrane Permeable-Phenotype (%) Value: ?
OUT: 4

IN: Item: O=C1NCN(c2ccccc2)C12CCN(CCCOc1ccc(F)cc1)CC2 [SPIRAMIDE] Test system: HEK-293T Read-out: Population Membrane Permeable-Phenotype (%) Value: ?
OUT: 6

IN: Item: "CNc1nc(NCc2ccc(NS(C)(=O)=O)cc2Cl)cc(-c2ccccn2)n1" Test system: HEK-293T Read-out: Population Membrane Permeable-Phenotype (%) Value: ?
OUT: 7

IN: Item: "Cc1csc2c(N[C@@H](C)CN3CCN(S(=O)(=O)c4ccc(Cl)c(Cl)c4)CC3)ncnc12" Test system: HEK-293T Read-out: Population Membrane Permeable-Phenotype (%) Value: ?
OUT: 8

IN: Item: "CN1CCN(CCOc2cc(OC3CCOCC3)c3c(Nc4c(Cl)ccc5c4OCO5)ncnc3c2)CC1" Test system: HEK-293T Read-out: Population Membrane Permeable-Phenotype (%) Value: ?
OUT: 1

IN: Item: "CC[C@H](C)C(=O)O[C@H]1C[C@@H](C)C=C2C=C[C@H](C)[C@H](CC[C@@H]3C[C@@H](O)CC(=O)O3)[C@H]21" Test system: HEK-293T Read-out: Population Membrane Permeable-Phenotype (%) Value: ?
OUT: 6

IN: Item: "C[C@@]1(C(=O)Nc2ccc(F)nc2)CCCN1c1nc(Nc2cc(C3CC3)n[nH]2)c2cccn2n1" Test system: HEK-293T Read-out: Population Membrane Permeable-Phenotype (%) Value: ?
OUT: 10

IN: Item: "Cc1nc(-c2cn3c(n2)-c2ccc(-c4cnn(C(C)(C)C(N)=O)c4)cc2OCC3)n(C(C)C)n1" Test system: HEK-293T Read-out: Population Membrane Permeable-Phenotype (%) Value: ?
OUT: 1

----------
# System: Fibroblast
# EXPERIMENT_SUMMARY: Multiplex assay against human fibroblast
# Type: toxicity, cell-based
# MEASUREMENT_CONDITIONS: 24 h, 10 µM, compound concentration 10 uM, replicate 1
Decide using Population Membrane Permeable-Phenotype (%) alone. Strictly below 30%: class 1. Equal to or above 30%: class 0.

- COMPOUND: "CC(C)(O)CNc1ncc(-c2ccnc(Nc3ccnc(Cl)c3)n2)c(CC2CC2)n1"
  LABEL: "class 1"
- COMPOUND: "Cc1sc2c(c1C)C(c1ccc(Cl)cc1)=N[C@@H](CC(=O)OC(C)(C)C)c1nnc(C)n1-2"
  LABEL: "class 1"
- COMPOUND: "COc1ncc(-c2ccc3nccc(-c4ccnnc4)c3c2)cc1NS(=O)(=O)c1ccc(F)cc1F [OMIPALISIB]"
  LABEL: "class 0"
- COMPOUND: "CN1CCC[C@@H]1CCO[C@](C)(c1ccccc1)c1ccc(Cl)cc1.O=C(O)/C=C/C(=O)O [CLEMASTINE FUMARATE]"
  LABEL: "class 1"
- COMPOUND: "Cl.N#Cc1ccc2[nH]cc(CCCCN3CCN(c4ccc5oc(C(N)=O)cc5c4)CC3)c2c1 [VILAZODONE HYDROCHLORIDE]"
  LABEL: "class 0"

IN: Could you please tell me whether Population Membrane Permeable-Phenotype (%) recorded for "Cc1csc2c(N[C@@H](C)CN3CCN(S(=O)(=O)c4ccc(Cl)c(Cl)c4)CC3)ncnc12" is less than 30%?
OUT: class 1

IN: Could you please tell me whether Population Membrane Permeable-Phenotype (%) recorded for "Cc1cc(C)cc(-c2cnc3cc(Cl)c(-c4cccc(O)c4)cc3c2OCCCN)c1" is less than 30%?
OUT: class 0

----------
# Tested on: U2OS
# EXPERIMENT_SUMMARY: Multiplex assay against U2OS
# Assay type: toxicity, cell-based
# MEASUREMENT_CONDITIONS: human, 24 h, 10 µM, compound concentration 10 uM, replicate 1
This listing pairs molecules with measured Population Mitotic Cells (%).
Enter your answer as a number in %; do not include the unit.

Some molecules with known Population Mitotic Cells (%) results, for comparison:
- MOLECULE: "O=C1NCN(c2ccccc2)C12CCN(CCCOc1ccc(F)cc1)CC2 [SPIRAMIDE]"
  TGT: "U2OS"
  UNIT_TAG: "%"
  Population Mitotic Cells (%): 58
- MOLECULE: "COc1cc2nccc(Oc3ccc(NC(=O)Nc4cc(C)on4)c(Cl)c3)c2cc1OC.O"
  TGT: "U2OS"
  UNIT_TAG: "%"
  Population Mitotic Cells (%): 17
- MOLECULE: "COc1cc(-n2cnc3cc(-c4ccc(Cl)cc4)sc3c2=O)ccc1OCCN1CCCC1"
  TGT: "U2OS"
  UNIT_TAG: "%"
  Population Mitotic Cells (%): 4
- MOLECULE: "Cl.N#Cc1ccc2[nH]cc(CCCCN3CCN(c4ccc5oc(C(N)=O)cc5c4)CC3)c2c1 [VILAZODONE HYDROCHLORIDE]"
  TGT: "U2OS"
  UNIT_TAG: "%"
  Population Mitotic Cells (%): 38
- MOLECULE: "C=CC(=O)Nc1cccc(C(=O)Nc2ccc(Nc3cc(-c4[nH]c(SC)nc4C)ccn3)cc2)c1"
  TGT: "U2OS"
  UNIT_TAG: "%"
  Population Mitotic Cells (%): 47

IN: Form field: reported Population Mitotic Cells (%) of Cc1nc(-c2cn3c(n2)-c2ccc(-c4cnn(C(C)(C)C(N)=O)c4)cc2OCC3)n(C(C)C)n1 [TASELISIB]
OUT: 72

IN: Form field: reported Population Mitotic Cells (%) of c1cn2cc(-c3ccc4cn[nH]c4c3)nc(Nc3ccc(N4CCOCC4)cc3)c2n1 [ENTOSPLETINIB]
OUT: 29

IN: Form field: reported Population Mitotic Cells (%) of Cc1nc(-c2ccc(-c3ccc(C(=O)N4CCc5cc6c(cc54)C4(CCN(C)CC4)CO6)cc3)c(C)c2)no1 [SB-224289]
OUT: 25
